system: HEK293; test: cells; format: functional, cell-based; settings: Homo sapiens;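 also: HEK-293-T cells carrying an NF-kB luciferase reporter; cells exposed to compound overnight before the viability read; potency for loss of cell viability meaning cytotoxicity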
The source made the active and inactive calls.
Outcomes: TRUE (active), FALSE (inactive)

CCOC(=O)c1sc2ccccc2c1OC(=O)c1ccc(C)cc1; FALSE
COc1cc(C(=O)Nc2sc3c(c2C(=O)O)CCC(C)C3)cc(OC)c1OC (centres undefined); FALSE
O=C(Nc1nc2c(Cl)cccc2s1)c1ccc([N+](=O)[O-])o1; TRUE
Cc1cc(C(=O)COC(=O)c2ccccc2Br)c(C)n1CC1CCCO1 (centres undefined); FALSE

###

Here, each record is paired with measured AC50 data.
experiment: blockers of HIV-1 ZM109 envelope-driven cell-cell fusion – HeLa effector, CEM target cells, luciferase, cherry-pick, dose response (AID 652058); assay type: functional, cell-based;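 also: luciferase signal from HIV-1 Env mediated cell-cell fusion of effector and target cells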
The source made the active and inactive calls.
EXPERIMENTAL_ENDPOINT: AC50

Cc1cc(Cl)ccc1OCC(=O)N1CCCN(C(=O)COc2ccc(Cl)cc2C)CC1; 2800 nM (active)
CO[C@H]1CN(C)C(=O)c2ccc(NC(=O)C3CCC3)cc2OC[C@@H](C)N(CC2CCCCC2)C[C@@H]1C; 3180 nM (active)
COc1ccc(C(=O)C(C)N(C(=O)c2ccc(Cl)cc2Cl)N2C(=O)C3C4C=CC(C4)C3C2=O)cc1 (stereo not drawn); 2820 nM (active)

###

Each item that follows carries a reported IC50.
Molecular target: Sentrin-specific protease 8 (Homo sapiens, UniProt Q96LD8);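 also: luminescence read-out of SENP8 inhibition, dose-response confirmation following an ultra-high-throughput screen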
Sequence (Q96LD8 whole entry): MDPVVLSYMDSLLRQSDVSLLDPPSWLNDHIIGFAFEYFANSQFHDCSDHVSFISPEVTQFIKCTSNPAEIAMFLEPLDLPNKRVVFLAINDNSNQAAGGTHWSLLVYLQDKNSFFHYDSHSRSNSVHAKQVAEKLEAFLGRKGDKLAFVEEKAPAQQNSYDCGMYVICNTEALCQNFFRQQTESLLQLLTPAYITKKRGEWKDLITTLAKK
Format: functional
Activity calls are given as the source filed them.
EXPERIMENTAL_ENDPOINT: IC50

Oc1nc(Nc2ccc(F)cc2)cc2ccccc12; 6.03 µM (active)
c1ccc(Cn2nc(-c3ccccc3)nc2-c2ccccc2)cc1; 30.4 µM (active)
O=C(Nc1nc2c(Cl)cccc2s1)c1ccc([N+](=O)[O-])o1; 32.9 µM (active)
COc1cccc(C(=O)Oc2ccc3ccc(O)cc3c2)c1; 17 µM (active)
O=C(Nc1ccc(Br)cc1)Nc1ccccc1Cl; 26.8 µM (active)
O=C(CCCN1C(=O)/C(=C/c2ccccc2Cl)SC1=S)NCCCN1CCOCC1; 43.6 µM (active)
COc1ccc(C(=O)CNc2ccccc2Br)cc1; 82.8 µM (active)
O=C(Nc1cc(Cl)cc(Cl)c1)c1cccc(OC(F)F)c1; 53.9 µM (active)
O=C(NC1=C(Nc2ccc(F)cc2)C(=O)c2ccccc2C1=O)c1ccc(Cl)cc1; 10.2 µM (active)
CN(C)c1cc(N/N=C\c2ccccc2)nc(N(C)C)n1; 18.8 µM (active)

###

target: Corticotropin-releasing factor receptor 2/Corticotropin-releasing factor-binding protein (Homo sapiens, UniProt P24387+Q13324); assay: activators of CRF receptor 2 with binding protein – uHTS hits, confirmation (AID 602473); assay type: functional; conditions: read-out: EC50_Mean
Sequence (Q13324 whole entry): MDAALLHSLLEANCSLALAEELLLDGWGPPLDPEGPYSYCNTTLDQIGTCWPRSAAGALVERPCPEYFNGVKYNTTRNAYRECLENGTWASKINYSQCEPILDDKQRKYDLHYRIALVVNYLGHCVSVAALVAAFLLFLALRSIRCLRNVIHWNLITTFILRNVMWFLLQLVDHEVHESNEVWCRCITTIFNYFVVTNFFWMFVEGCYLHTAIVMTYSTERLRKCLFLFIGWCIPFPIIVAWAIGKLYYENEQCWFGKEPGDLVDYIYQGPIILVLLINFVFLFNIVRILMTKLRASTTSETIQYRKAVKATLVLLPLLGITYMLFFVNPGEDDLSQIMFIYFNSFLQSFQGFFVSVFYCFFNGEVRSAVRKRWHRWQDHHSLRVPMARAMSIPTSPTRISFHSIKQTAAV
Sequence (P24387 whole entry): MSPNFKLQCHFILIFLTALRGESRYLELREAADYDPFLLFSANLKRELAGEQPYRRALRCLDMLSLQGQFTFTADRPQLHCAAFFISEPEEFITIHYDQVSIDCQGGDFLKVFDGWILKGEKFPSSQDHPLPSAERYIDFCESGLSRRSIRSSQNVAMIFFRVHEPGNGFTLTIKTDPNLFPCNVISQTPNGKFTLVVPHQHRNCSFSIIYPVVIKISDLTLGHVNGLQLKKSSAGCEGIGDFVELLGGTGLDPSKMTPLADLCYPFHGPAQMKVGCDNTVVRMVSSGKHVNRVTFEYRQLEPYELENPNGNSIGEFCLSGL
Activity calls are given as the source filed them.
Possible outcomes: 1 for active, -1 for inactive

Fc1ccccc1CSc1nnnn1-c1ccc2c(c1)OCO2; -1
O=C(NC(C(=O)N/N=C/c1cccnc1)c1nnc(O)c2ccccc12)c1ccccc1 (stereo unspecified); 1
O=C(COC(=O)[C@H](Cc1ccccc1)NC(=O)c1ccco1)NCc1ccccc1; 1
COC(=O)C(OC(=O)c1ccccc1)C(C)Br (stereo unspecified); -1
O=C(COc1cc(Cl)ccc1Cl)N1CCNC1=O; -1
COc1ccc(C2CC(c3cccs3)=NN2C(=O)c2ccccc2)cc1OC (stereo unspecified); -1
O=[N+]([O-])c1ccccc1C=NNC(=S)NN=Cc1ccccc1[N+](=O)[O-]; -1
Cc1ccc(S(=O)(=O)N2CCC(c3nc4c(nnn4Cc4ccccc4)c(=O)[nH]3)CC2)cc1; -1
CC[C@@H](C)[C@@H]1CN([C@@H](CN2CCC[C@H]2CN2C(N)=NC[C@H]2CC(C)C)C(C)C)C(=N)N1CCc1ccc(Cl)c(Cl)c1; 1
CC1CCN(S(=O)(=O)c2ccc(C(C)C)cc2)CC1; -1
O=C1NC(=S)S/C1=C\c1cc(Cl)cc(Cl)c1O; 1
COc1ccc(C(NC(=O)c2ccc(O)nc2)C(=O)Nc2ccc(C(C)C)cc2)cc1 (stereo unspecified); -1
COc1ccc(/C=C2\CCC(C3CCCC3)C2=O)cc1OC (stereo unspecified); -1
CC(C)CCOP(=O)(c1ccc(N(C)C)cc1)C(Nc1ccccc1)c1ccc(N(C)C)cc1 (stereo unspecified); -1
CCCCOC(=O)c1ccc(NC(c2ccc(C)cc2)P(=O)(OC)OC)cc1 (stereo unspecified); -1
CC1CCN(C(=O)c2nc[nH]c2C(=O)N[C@@H](C)C(=O)OC(C)(C)C)CC1; -1
Cc1nn(-c2ccc([N+](=O)[O-])cc2)c(N)c1-c1ccccc1; -1
CSCSC1=C(C#N)C(c2ccccc2Cl)C(C(C)=O)=C(C)N1 (stereo unspecified); -1
C=CCOc1cccc(CNc2ccc3[nH]c(O)nc3c2)c1; -1
CC(=O)C1=C(O)C(=O)N(c2nccs2)C1c1ccccc1 (stereo unspecified); -1
CN(C(=O)Oc1ccc(C(=O)c2ccc(Cl)cc2)cc1)c1ccccc1; -1

###

target: Eukaryotic translation initiation factor 4H (Homo sapiens, UniProt Q15056); assay: eIF4H binding inhibition – biochemical, uHTS, fluorescence polarization, translation initiation inhibitor project, primary screen (AID 2012)
Calls of active or inactive are those of the source.
EXPERIMENTAL_ENDPOINT: IC50

CN(CC(=O)NC(=O)NCc1ccco1)CC(=O)Nc1ccccc1Cl; 20.5 µM (active)
Cc1ccc(C(=O)OCC(=O)NC2CCCCC2)o1; 51 µM (active)
O=C(CCS(=O)(=O)c1ccc(Br)cc1)N1CCN(c2ccc(F)cc2)CC1; 24.2 µM (active)
Cc1ccccc1SCC(=O)N1CCN(c2ccc(C(F)(F)F)cn2)CC1; > 100 µM (inactive)

###

target: UniProt P07900; assay: Luminescence-based dose response biochemical high throughput screening assay for inhibitors of the Heat Shock Protein 90 (HSP90). [Related pubchem assays: 1831 (Summary AID.), 1846 (Confirmation screen.), 1789 (Primary screen.)]
The source made the active and inactive calls.
EXPERIMENTAL_ENDPOINT: IC50

COc1cc(/C=N/Nc2ccc(Cl)c(C(=O)O)c2)ccc1OC(=O)c1cccs1; 1.32 µM (active)
C=CCOc1c(CNc2cccc(C(=O)O)c2)cccc1OC; 2.39 µM (active)
COc1cc(N2Cc3ccccc3C2)ccc1C=O; > 7 µM (active)
CC(C)Sc1nc(SCC(=O)NCc2ccco2)c2c3c(sc2n1)COC(C)(C)C3; 8.37 µM (active)

###

molecular target: Cytochrome P450 2C19 (Homo sapiens); experiment: Cytochrome panel assay with activity outcomes. Panel member name: p450-cyp2c19 Compounds with AC50 equal or less than 10 uM are considered active; type: functional
Sequence (P33261 whole entry): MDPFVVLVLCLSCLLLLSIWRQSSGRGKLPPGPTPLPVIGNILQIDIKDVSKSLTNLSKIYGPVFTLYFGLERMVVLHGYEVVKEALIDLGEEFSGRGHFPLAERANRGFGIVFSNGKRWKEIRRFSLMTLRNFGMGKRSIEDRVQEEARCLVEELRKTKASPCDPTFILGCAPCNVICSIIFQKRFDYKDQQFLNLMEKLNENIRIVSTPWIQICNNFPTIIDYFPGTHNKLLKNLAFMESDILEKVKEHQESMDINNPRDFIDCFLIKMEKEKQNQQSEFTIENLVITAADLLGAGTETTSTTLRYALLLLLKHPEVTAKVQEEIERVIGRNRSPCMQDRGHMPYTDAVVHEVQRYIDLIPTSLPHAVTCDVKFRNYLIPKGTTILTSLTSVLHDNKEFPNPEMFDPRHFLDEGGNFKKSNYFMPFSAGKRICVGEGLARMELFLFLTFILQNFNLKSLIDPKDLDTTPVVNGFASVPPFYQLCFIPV
EXPERIMENTAL_ENDPOINT: AC50

O=C(O)CCC(=O)Nc1ccc(C(=O)N2CCCCC2)cc1; inconclusive
Cc1ccc(C)c(NC(=N)Nc2nc(C)cc(C)n2)c1; inconclusive
CCCc1cc(=O)[nH]c(=S)[nH]1; inconclusive
CNc1ccnc(-c2c(C)noc2C)n1; inconclusive

###

target: Caspase-3 (Homo sapiens, UniProt P42574); type: functional;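 also: Dose-response selectivity test against caspase-3 for candidate inhibitors of sentrin-specific proteases (SENPs)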
Calls of active or inactive are those of the source.
Possible outcomes: active, inactive

Oc1nc(Nc2ccc(F)cc2)cc2ccccc12; active
CN(C)c1cc(N/N=C\c2ccccc2)nc(N(C)C)n1; inactive
O=C(CCCN1C(=O)/C(=C/c2ccccc2Cl)SC1=S)NCCCN1CCOCC1; active
O=C(Nc1nc2c(Cl)cccc2s1)c1ccc([N+](=O)[O-])o1; active
COc1ccc(C(=O)CNc2ccccc2Br)cc1; active
O=C(Nc1cc(Cl)cc(Cl)c1)c1cccc(OC(F)F)c1; inactive
O=C(Nc1ccc(Br)cc1)Nc1ccccc1Cl; active
c1ccc(Cn2nc(-c3ccccc3)nc2-c2ccccc2)cc1; active
O=C(NC1=C(Nc2ccc(F)cc2)C(=O)c2ccccc2C1=O)c1ccc(Cl)cc1; active
COc1cccc(C(=O)Oc2ccc3ccc(O)cc3c2)c1; active

###

target: Cytochrome P450 2C9 (Homo sapiens, UniProt P11712)
Sequence (P11712 whole entry): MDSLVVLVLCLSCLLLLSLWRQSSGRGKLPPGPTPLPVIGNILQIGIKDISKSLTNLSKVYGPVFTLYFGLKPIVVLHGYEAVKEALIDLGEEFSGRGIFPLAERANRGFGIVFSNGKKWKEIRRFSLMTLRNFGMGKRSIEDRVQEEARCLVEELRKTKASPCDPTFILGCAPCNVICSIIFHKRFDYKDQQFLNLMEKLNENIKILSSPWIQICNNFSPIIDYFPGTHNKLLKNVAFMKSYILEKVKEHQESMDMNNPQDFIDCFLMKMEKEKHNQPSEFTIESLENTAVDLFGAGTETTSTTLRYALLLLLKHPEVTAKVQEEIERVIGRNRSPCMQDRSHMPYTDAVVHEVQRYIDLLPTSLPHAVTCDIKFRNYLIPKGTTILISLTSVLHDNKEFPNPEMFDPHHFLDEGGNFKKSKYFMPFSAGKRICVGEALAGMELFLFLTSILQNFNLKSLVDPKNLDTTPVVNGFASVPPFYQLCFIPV
EXPERIMENTAL_ENDPOINT: AC50

O=C(N[C@@H](Cc1ccccc1)C(=O)CCl)OCc1ccccc1; 12.6 µM (inconclusive)
COC(=O)C1=C(NC(=O)c2ccc(C)c(C)c2)CCS1; 14.1 µM (inconclusive)
O=C(O)/C=C\c1c2ccc(=O)c(O)c-2oc2c(O)c(O)ccc12; 7.94 µM (inconclusive)
COC(=O)CSC1=C(C#N)C(c2cccc(F)c2)CC(=O)N1 (stereo unspecified); 0.0282 µM (inconclusive)
N#CCCn1c(=O)c(-c2cc(F)cc(F)c2)nc2cnc(OCc3ccccc3)nc21; 3.16 µM (inconclusive)
Oc1ccc2[nH]cc(CCCCN3CC=C(c4ccccc4)CC3)c2c1; 12.6 µM (inconclusive)
COC(=O)C(CCSC)NC(=O)c1cccc([N+](=O)[O-])c1 (stereo unspecified); 2 µM (inconclusive)
CCCN1CC=C2C(C#N)=C(N)C(C#N)(C#N)C(c3cc(OC)ccc3OC)C2C1 (stereo unspecified); 7.94 µM (inconclusive)
O=C(N/N=C/c1ccc(Sc2nc3ccccc3s2)c([N+](=O)[O-])c1)c1ccccn1; 0.00562 µM (inconclusive)
Cn1c(=O)cc(OCC(=O)NCc2cccnc2)c2ccccc21; 14.1 µM (inconclusive)
CCn1c(SCc2cccc(C)c2)nnc1-c1ccccc1; 35.5 µM (inconclusive)

Ref: ChEMBL document CHEMBL1201862
